# Tested on: PIK3CA (human), P42336 [E545A]
# Sequence (P42336 whole entry E545A, looked up): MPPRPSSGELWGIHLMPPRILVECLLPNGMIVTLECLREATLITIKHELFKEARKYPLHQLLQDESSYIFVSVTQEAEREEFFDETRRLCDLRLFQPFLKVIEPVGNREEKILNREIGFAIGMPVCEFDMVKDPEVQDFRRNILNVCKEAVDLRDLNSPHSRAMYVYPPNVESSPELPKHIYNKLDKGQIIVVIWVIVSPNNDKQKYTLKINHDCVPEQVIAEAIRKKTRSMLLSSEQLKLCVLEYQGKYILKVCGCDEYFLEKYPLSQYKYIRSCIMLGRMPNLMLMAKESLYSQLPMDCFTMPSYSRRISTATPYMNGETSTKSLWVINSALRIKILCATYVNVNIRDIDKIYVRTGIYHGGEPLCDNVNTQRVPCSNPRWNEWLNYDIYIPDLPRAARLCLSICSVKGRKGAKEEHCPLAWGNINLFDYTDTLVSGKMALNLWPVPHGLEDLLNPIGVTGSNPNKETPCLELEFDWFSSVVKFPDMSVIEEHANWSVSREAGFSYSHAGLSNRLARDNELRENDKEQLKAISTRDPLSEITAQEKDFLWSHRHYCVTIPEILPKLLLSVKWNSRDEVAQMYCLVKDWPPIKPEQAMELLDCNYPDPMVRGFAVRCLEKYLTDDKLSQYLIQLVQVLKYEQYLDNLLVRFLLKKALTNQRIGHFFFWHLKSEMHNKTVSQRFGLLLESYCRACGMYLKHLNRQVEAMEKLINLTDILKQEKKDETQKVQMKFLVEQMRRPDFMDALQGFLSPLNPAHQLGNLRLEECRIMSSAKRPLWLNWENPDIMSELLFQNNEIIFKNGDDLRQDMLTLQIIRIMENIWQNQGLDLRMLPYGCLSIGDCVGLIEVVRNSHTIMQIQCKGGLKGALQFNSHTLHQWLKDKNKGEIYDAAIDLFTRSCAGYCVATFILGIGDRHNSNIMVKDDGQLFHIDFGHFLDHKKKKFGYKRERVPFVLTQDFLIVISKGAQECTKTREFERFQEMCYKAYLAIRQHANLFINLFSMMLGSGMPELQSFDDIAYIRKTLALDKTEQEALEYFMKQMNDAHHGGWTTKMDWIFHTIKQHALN
# TEST_DESCRIPTION: KINOMEscan competition binding
# PROTOCOL_CONDITIONS: compound 1.0 µM
PARAMETER_MEASURED: kinase still bound, per cent of control (%)
Expressed in %, but write only the number.

Solved entries (count: 3):
(Q) Test system PIK3CA (human), P42336 [E545A]; read-out kinase still bound, per cent of control; what value for CN(C)C/C=C/C(=O)Nc1cccc(C(=O)Nc2ccc(Nc3nccc(/C(C#N)=C4\Nc5ccccc5S4)n3)cc2)c1 ?
(A) 100

(Q) What value of kinase still bound, per cent of control on PIK3CA (human), P42336 [E545A] does CN(C)C/C=C/C(=O)Nc1cccc(C(=O)Nc2ccc(Nc3nccc(-c4c(-c5ccccc5)nn5ccccc45)n3)cc2)c1 have?
(A) 100

(Q) # query: kinase still bound, per cent of control | item Cc1cc(NC(=O)c2cccc(NC(=O)/C=C/CN(C)C)c2)ccc1Nc1nccc(-c2cccnc2)n1 | system: PIK3CA (human), P42336 [E545A]
(A) 95

Switching to the query record.
(Q) Please provide the recorded kinase still bound, per cent of control for CN(C)C/C=C/C(=O)Nc1cccc(C(=O)Nc2ccc(Nc3nccc(-c4cccnc4)n3)cc2)c1 , tested on PIK3CA (human), P42336 [E545A].
(A) 95

---

# ASSAY_SYSTEM: UniProt:Q8N568
# Sequence (Q8N568 whole entry, looked up): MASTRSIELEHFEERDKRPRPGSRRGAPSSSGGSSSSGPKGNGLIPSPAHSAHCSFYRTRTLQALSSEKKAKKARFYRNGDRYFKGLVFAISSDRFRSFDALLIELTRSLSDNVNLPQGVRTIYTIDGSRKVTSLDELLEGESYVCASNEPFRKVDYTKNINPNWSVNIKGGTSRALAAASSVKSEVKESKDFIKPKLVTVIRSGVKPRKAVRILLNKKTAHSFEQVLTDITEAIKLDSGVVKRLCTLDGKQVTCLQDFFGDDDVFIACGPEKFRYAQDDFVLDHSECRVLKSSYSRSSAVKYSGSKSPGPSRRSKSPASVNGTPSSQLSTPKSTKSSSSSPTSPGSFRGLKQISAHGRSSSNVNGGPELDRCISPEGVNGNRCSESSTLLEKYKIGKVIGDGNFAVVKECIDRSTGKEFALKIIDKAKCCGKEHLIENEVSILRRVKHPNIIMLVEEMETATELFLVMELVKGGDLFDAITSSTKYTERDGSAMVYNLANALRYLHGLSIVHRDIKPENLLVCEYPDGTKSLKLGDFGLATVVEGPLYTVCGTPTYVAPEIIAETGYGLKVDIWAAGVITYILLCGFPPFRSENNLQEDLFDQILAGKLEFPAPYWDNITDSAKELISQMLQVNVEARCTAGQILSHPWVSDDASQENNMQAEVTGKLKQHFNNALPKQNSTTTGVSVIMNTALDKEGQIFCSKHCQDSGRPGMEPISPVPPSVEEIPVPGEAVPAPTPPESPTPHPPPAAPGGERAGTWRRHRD
# TEST_DESCRIPTION: KINOMEscan competition binding
# PROTOCOL_CONDITIONS: compound 1.0 µM
As shown below, each of these compounds has a reported kinase still bound, per cent of control value.
Numbers only; they are read as %.

(Q) Short answer please: kinase still bound, per cent of control, UniProt:Q8N568, entry CN(C)C/C=C/C(=O)Nc1cccc(C(=O)Nc2ccc(Nc3nccc(-c4cccnc4)n3)cc2)c1
(A) 100

(Q) Item: Cc1cc(NC(=O)c2cccc(NC(=O)/C=C/CN(C)C)c2)ccc1Nc1nccc(-c2cccnc2)n1 Test system: UniProt:Q8N568 Read-out: kinase still bound, per cent of control Value: ?
(A) 94

(Q) Hi! What's the reported kinase still bound, per cent of control for CN(C)C/C=C/C(=O)Nc1cccc(C(=O)Nc2ccc(Nc3nccc(-c4c(-c5ccccc5)nn5ccccc45)n3)cc2)c1 on UniProt:Q8N568?
(A) 100

Further cases:
(Q) I'm curious: which kinase still bound, per cent of control was measured for CN(C)C/C=C/C(=O)Nc1cccc(C(=O)Nc2ccc(Nc3nccc(/C(C#N)=C4\Nc5ccccc5S4)n3)cc2)c1 tested on UniProt:Q8N568?
(A) 100

---

Measured kinase still bound, per cent of control, listed per entry.
# ASSAY_SYSTEM: UniProt:Q86Z02
# Sequence (Q86Z02 whole entry, looked up): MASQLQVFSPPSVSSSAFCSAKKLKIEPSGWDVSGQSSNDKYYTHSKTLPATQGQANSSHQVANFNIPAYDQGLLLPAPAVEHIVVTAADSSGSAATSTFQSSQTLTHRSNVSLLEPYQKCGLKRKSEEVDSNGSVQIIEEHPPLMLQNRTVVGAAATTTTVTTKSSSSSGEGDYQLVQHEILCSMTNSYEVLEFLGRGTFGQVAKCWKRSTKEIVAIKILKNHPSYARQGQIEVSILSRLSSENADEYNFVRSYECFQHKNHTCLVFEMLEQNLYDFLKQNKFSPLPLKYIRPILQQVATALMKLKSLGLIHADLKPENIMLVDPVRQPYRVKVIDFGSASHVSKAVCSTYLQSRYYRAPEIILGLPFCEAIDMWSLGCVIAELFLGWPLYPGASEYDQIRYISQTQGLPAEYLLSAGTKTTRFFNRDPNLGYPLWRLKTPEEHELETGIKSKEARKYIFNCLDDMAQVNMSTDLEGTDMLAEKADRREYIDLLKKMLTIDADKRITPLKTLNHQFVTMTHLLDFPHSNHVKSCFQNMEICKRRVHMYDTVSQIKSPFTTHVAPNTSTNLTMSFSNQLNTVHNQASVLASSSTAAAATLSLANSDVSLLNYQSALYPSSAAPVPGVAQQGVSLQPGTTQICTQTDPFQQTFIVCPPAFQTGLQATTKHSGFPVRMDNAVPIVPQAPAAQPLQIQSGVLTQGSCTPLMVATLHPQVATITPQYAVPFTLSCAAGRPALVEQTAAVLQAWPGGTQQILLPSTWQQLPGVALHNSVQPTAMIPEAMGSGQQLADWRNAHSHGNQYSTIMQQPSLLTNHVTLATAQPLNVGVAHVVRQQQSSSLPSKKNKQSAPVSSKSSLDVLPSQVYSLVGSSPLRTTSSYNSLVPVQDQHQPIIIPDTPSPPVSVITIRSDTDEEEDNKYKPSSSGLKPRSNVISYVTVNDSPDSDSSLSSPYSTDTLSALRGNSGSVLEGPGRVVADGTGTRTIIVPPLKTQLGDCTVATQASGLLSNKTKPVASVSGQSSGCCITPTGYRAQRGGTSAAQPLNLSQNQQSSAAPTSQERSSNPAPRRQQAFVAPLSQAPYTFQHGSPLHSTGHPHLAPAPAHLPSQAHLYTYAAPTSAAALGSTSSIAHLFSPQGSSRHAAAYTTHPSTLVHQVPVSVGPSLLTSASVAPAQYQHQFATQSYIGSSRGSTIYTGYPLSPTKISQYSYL
# TEST_DESCRIPTION: KINOMEscan competition binding
# PROTOCOL_CONDITIONS: compound 1.0 µM
Express it in %; write the number only.

Solved entries (count: 3):
(Q) I'd like to know its kinase still bound, per cent of control. The compound in question is CN(C)C/C=C/C(=O)Nc1cccc(C(=O)Nc2ccc(Nc3nccc(-c4c(-c5ccccc5)nn5ccccc45)n3)cc2)c1
(A) 100

(Q) Could you tell me which kinase still bound, per cent of control is on file for Cc1cc(NC(=O)c2cccc(NC(=O)/C=C/CN(C)C)c2)ccc1Nc1nccc(-c2cccnc2)n1 ?
(A) 100

(Q) Reported kinase still bound, per cent of control, compound CN(C)C/C=C/C(=O)Nc1cccc(C(=O)Nc2ccc(Nc3nccc(/C(C#N)=C4\Nc5ccccc5S4)n3)cc2)c1 : ____
(A) 100

New cases:
(Q) Name the recorded kinase still bound, per cent of control for CN(C)C/C=C/C(=O)Nc1cccc(C(=O)Nc2ccc(Nc3nccc(-c4cccnc4)n3)cc2)c1 .
(A) 3.6

Value source: the kinase profiling compilation of Christmann-Franck et al. (2016)
